This collection of values is drawn from paper PMC3692342.

Assay: Pharmacokinetic study in rabbits
Format: in vivo, New Zealand White rabbits
Conditions: New Zealand White, rabbit, plasma, ip, 10 mg/kg
assay_readout: AUC(0-inf) (µg·h/mL)
Write the number in µg·h/mL without appending the unit.

GET /value?item= CC1=CC(=O)C(C(C)C)=CC1=O [Thymoquinone, thymoquinone] &field=AUC(0-inf) returns 26.8
